Test: protein stability index of a GFP-peptide fusion (GPS, HEK-293T) (PSI 1-6); higher = more stable;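 further: 24-mer peptide tiles fused after GFP, lentivirally expressed, FACS-sorted into six equal bins by GFP/DsRed ratio, decoded by Illumina sequencing, PSI is the read-weighted mean bin number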
Details: treatment: DMSO; c terminus: a fixed tail appended
// class assignment uses protein stability index with these ranges: low = under 3, intermediate = from 3 up to 4, high = 4 and over

Example cases with answers are listed next.
ordered-residues	group-label
ALTYACAGGYVDVVKVLLESGASI [ANKRD17]	low
HSFNFVLSANLHGGAVVANYPYDK [CPN1]	low
LSPVLESPRDLQFSEIRETSAKVN [TNXB]	high
CMPLVCTAIFYTLMTCEMLNRRNG [EDNRA]	intermediate

-- ask Looking at QGAPASSFVYVNPEDGRIFAQRTF [PCDHGC5] , which class would you pick?
-- reply low

-- ask Subsequent entry: IITVTLNMEKYNFLGISIVGQSNE [DVL3]
-- reply intermediate

-- ask Subsequent entry: FSRVVHLYRNGKDQDGDQAPEYRG [MOG]
-- reply intermediate
